assay: Intrinsic clearance in rat liver microsomes; format: ADME, microsome; conditions: read-out: CLH
OBSERVED PROPERTY: microsomal CLint (µL/min/mg)

• CCOc1ccccc1C1(N2CCN(c3ccncc3)CC2)C(=O)N(S(=O)(=O)c2ccc(OC)cc2OC)c2ccc(C#N)cc21 (stereo not drawn) = 83

1. CCOc1ccc(OC)cc1C1(N2CCN(c3ccncc3)CC2)C(=O)N(S(=O)(=O)c2ccc(OC)c3cccnc23)c2ccc(C#N)cc21 (stereo not drawn)
2. COc1ccc(S(=O)(=O)N2C(=O)C(c3cccnc3OC)(N3CCN(C)C(=O)C3)c3cc(Cl)ccc32)c(OC)c1 (stereo not drawn)
Enquiry: Could you point out whether the larger microsomal CLint belongs to 1 or to 2 ? # reply format: chosen label
Return: 2
(2: 113 µL/min/mg, 1: 15 µL/min/mg)
